test: pharmacokinetics, plasma concentration-time curves (phase 1); format: in vivo, human; details: human, oral; plasma; Days 1 and 27; 1-60 mg QOD; read-out: mean terminal elimination half-life
ENDPOINT_NAME: half-life

# input Data request, read-out half-life, for `Cc1ccc(C(=O)Nc2ccc(CN3CCN(C)CC3)c(C(F)(F)F)c2)cc1C#Cc1cnc2[nH]ncc2c1`
# output 17.5 to 36.5 h

meta.source: paper PMC9389804
